// data source = ChEMBL document CHEMBL1143684

- SUBJECT_OF_TEST: Trace amine-associated receptor 1 (Mus musculus) (UniProt Q923Y8)
- Sequence (Q923Y8 whole entry): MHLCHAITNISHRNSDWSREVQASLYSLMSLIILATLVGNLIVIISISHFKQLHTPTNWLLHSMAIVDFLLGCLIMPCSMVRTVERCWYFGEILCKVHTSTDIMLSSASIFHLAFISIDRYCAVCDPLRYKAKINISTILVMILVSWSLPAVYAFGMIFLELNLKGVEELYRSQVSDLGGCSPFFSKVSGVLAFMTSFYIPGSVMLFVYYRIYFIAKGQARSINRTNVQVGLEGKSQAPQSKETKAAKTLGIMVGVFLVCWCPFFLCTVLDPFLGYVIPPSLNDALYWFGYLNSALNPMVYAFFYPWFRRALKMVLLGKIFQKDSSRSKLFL
- ASSAY_REMARKS: Efficacy at mouse TAAR1 expressed in HEK293 cells assessed as stimulation of cAMP production at 10 uM relative to 3-iodothyronamine
- Format: functional, cell-based
REPORTED_PROPERTY: Emax (%)
# unit: % | format: bare number

Q. // returns reported Emax for input CC(C)(CN)c1ccc(Oc2ccccc2)cc1
A. 18

Q. I'd like to know its Emax. The molecule in question is NCC(Cc1ccccc1)c1ccc(Oc2ccccc2)cc1 (centres undefined)
A. 31

Q. Which Emax reading was recorded for the molecule COc1ccc(C(CN)c2ccccc2)c2ccccc12 (centres undefined) ?
A. 14

Q. Recorded Emax of NCC(C#Cc1ccccc1)c1ccc(Oc2ccccc2)cc1 (centres undefined) , please.
A. 2

Q. So what's the measured Emax for this one? C#CC(CN)c1ccc(Oc2ccccc2)cc1 (centres undefined)
A. 79

Q. Consider the molecule NCCc1ccc(Oc2ccccc2)c2ccccc12 and give its measured Emax.
A. 104

Q. # input molecule: NCC(c1ccccc1)c1ccc(O)c2ccccc12 (centres undefined) ; wanted: its Emax
A. 14

Q. What value of Emax has been recorded for this entry: CN(C)CCCNC(=O)c1ccc(Oc2ccccc2)cc1
A. 0

Q. What does the data say about its Emax? Entry: NCCc1ccc(Oc2ccc(O)cc2)c(I)c1
A. 100

Q. For NCCc1ccc(Oc2ccccc2)cc1 , what is its reported Emax?
A. 85

Q. Which measured Emax value corresponds to CC(CN)c1ccc(Oc2ccccc2)cc1 (centres undefined) ?
A. 72

Q. Reported Emax, molecule NCC(c1ccccc1)c1ccc(Oc2ccccc2)cc1 (centres undefined) : ____
A. 35

Q. Dear colleague, I am looking for the recorded Emax of the following molecule: NCC(c1ccccc1)c1cccc(Oc2ccccc2)c1 (centres undefined)
A. 15

Q. # query: Emax of entry NCC(c1ccccc1)c1ccc(Oc2ccccc2)c2ccccc12 (centres undefined)
A. 0
